# System: SK-OV-3
# test_name: NCI-60 SRB screen
# Format: cell-based, human
# cond: Homo sapiens; SK-OV-3; single dose 10^−5 M; read-out: Growth inhibition (%)
assay_readout: inhibition at 10 µM (%)
Entry rule: numbers only, all in %.

*Q* Need inhibition at 10 µM, item O=C1NC(c2cccc([N+](=O)[O-])c2)c2sc3c(F)cccc3c2C1N1CCOCC1 (stereo not drawn) [Compound 6b]
*A* 0.4

*Q* Repeat for the following molecule: COc1ccc(C2NC(=O)C(Cl)c3c2sc2c(F)cccc32)c(OC)c1 (stereo not drawn) [Compound 4a]
*A* 0.53

*Q* Repeat for the following molecule: N#CC1C(=O)NC(c2ccccc2[N+](=O)[O-])c2sc3c(F)cccc3c21 (stereo not drawn) [Compound 5c]
*A* 28.2

*Q* Repeat for the following molecule: O=C1NC(c2cccc([N+](=O)[O-])c2)c2sc3c(F)cccc3c2C1N1CCCCC1 (stereo not drawn) [Compound 6c]
*A* -0.84

*Q* Repeat for the following molecule: COc1ccc(C2NC(=O)C(C#N)c3c2sc2c(F)cccc32)cc1 (stereo not drawn) [Compound 5b]
*A* 36.9

*Q* Repeat for the following molecule: O=[N+]([O-])c1cccc(C2NC(Cl)=C(Cl)c3c2sc2c(F)cccc32)c1 (stereo not drawn) [Compound 7a]
*A* 5.95

*Q* Repeat for the following molecule: O=C1NC(c2cccc([N+](=O)[O-])c2)c2sc3c(F)cccc3c2C1Cl (stereo not drawn) [Compound 4d]
*A* -10.2

*Q* Repeat for the following molecule: COc1ccc(C2NC(=O)C(Cl)c3c2sc2c(F)cccc32)cc1 (stereo not drawn) [Compound 4b]
*A* -2.04

*Q* Repeat for the following molecule: COc1ccc(C=C2Sc3c(F)cccc3C2=O)c(OC)c1 [Compound 2a]
*A* 6.36

Where do the numbers come from? From paper PMC8330742.
